# collection of IC50 values tested on human neuronal constitutive NOS (hncNOS) (Homo sapiens, UniProt P29475)
# Sequence (P29475 whole entry): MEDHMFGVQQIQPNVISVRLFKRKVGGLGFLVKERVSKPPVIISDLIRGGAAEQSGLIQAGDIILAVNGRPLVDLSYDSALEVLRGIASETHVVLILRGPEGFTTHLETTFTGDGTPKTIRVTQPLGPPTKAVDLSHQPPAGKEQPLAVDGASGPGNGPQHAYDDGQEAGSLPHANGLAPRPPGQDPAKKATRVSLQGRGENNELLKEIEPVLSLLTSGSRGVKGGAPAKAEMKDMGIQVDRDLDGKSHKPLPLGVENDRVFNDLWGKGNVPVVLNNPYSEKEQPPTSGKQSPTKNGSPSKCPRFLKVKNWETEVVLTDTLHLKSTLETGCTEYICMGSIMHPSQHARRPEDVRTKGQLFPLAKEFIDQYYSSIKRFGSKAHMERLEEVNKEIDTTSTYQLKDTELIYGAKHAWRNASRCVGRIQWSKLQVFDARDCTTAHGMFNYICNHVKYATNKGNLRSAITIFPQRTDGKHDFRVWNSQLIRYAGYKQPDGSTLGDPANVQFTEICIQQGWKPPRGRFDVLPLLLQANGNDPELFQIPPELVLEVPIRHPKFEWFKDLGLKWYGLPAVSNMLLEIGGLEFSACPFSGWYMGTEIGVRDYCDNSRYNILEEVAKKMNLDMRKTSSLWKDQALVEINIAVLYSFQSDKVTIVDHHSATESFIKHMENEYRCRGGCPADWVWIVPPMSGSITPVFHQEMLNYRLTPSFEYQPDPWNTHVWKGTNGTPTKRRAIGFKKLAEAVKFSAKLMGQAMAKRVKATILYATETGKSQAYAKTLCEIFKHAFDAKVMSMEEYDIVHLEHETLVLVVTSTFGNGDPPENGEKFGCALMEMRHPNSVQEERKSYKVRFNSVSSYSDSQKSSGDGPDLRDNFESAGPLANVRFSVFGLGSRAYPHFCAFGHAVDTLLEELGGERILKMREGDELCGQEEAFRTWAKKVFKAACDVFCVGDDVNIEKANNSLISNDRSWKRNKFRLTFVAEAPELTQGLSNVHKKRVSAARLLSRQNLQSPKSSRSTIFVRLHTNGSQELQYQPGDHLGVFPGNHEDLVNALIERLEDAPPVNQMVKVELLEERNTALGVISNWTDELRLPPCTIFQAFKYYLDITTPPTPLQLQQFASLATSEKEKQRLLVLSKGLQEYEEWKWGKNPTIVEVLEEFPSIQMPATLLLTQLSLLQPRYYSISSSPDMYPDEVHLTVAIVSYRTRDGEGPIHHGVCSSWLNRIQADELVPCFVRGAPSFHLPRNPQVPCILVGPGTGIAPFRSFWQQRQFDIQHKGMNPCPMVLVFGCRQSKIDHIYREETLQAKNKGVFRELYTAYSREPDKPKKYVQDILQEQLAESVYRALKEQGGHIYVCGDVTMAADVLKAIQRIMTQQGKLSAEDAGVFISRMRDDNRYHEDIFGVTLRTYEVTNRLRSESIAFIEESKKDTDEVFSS
Structures can show the parent of a compound that is named as a salt.
Write it as a number; the unit µM goes unstated.

Challenge: Entry under review: CC(=N)NCC#CCC(C)(N)C(=O)O (stereo not drawn) [Example FF, Dihydrochloride] . Reported IC50?
Response given: 45

Challenge: Same question for CC(=N)NC/C=C/C[C@](C)(N)C(=O)O [Example EE, Dihydrochloride] please.
Response given: 5.8

Challenge: And for CC(=N)NC/C(F)=C\CC[C@](C)(N)C(=O)O.Cl.Cl [Example HH, Dihydrochloride] ?
Response given: 7.6

Challenge: Now this one: CC(=N)NC/C(F)=C\CCC(C)(N)C(=O)O (racemic) [Example KK, Dihydrochloride]
Response given: 13

Challenge: Here is the next compound: CC(=N)NC/C=C/CC(C)(N)C(=O)O (stereo not drawn) [Example CC, Dihydrochloride]
Response given: 9.9

----------
Target or system UniProt P35228; recorded quantity IC50.
Sequence (P35228 whole entry): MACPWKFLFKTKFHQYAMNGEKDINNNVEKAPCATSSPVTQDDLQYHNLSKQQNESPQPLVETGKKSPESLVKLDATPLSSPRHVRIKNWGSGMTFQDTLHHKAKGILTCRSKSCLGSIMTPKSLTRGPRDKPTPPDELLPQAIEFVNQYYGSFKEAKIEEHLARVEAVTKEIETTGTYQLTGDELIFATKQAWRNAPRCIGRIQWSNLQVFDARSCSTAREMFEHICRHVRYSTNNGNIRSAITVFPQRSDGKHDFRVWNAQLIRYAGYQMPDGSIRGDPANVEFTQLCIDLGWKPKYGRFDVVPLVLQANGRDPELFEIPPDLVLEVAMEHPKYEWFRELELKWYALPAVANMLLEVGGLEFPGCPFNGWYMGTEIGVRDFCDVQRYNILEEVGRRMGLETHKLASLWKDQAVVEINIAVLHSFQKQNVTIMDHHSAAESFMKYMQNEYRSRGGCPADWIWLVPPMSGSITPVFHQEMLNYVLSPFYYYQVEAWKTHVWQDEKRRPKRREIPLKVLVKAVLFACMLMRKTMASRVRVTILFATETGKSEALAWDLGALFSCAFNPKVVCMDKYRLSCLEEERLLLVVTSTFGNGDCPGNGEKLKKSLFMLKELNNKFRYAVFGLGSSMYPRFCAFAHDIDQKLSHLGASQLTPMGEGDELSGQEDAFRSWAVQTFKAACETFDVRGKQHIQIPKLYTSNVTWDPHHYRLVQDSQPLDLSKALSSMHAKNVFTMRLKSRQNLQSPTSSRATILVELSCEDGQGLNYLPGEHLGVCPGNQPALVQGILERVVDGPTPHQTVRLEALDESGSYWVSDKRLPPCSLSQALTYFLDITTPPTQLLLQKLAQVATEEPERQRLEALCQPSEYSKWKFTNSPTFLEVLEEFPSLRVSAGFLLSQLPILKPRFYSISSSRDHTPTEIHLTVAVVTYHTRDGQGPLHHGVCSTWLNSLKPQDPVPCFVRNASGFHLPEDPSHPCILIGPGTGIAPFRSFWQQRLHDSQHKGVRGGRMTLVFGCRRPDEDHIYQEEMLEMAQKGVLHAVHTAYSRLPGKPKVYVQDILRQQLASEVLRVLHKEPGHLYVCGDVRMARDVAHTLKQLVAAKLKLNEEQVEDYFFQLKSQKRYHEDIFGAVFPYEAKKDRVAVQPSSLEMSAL
Where a name gives a salt, the structure may show the parent alone.

Challenge: Recorded IC50 for CC(=N)NCC#CCC(C)(N)C(=O)O (stereo not shown) [Example FF, Dihydrochloride] , please?
Response given: 16000 nM

Challenge: Try this molecule next: CC(=N)NC/C=C/C[C@](C)(N)C(=O)O [Example EE, Dihydrochloride]
Response given: 1400 nM

Challenge: What about CC(=N)NC/C(F)=C\CCC(C)(N)C(=O)O (racemic) [Example KK, Dihydrochloride] ?
Response given: 570 nM

Challenge: Next up: N=C1CCCC[C@H](C/C=C/C[C@H](N)C(=O)O)N1
Response given: < 10000 nM

Challenge: Also CC(=N)NC/C(F)=C\CC[C@@](C)(N)C(=O)O [Example JJ, Dihydrochloride] ?
Response given: 56000 nM

Challenge: Can you handle CC(=N)NC/C(F)=C\CC[C@](C)(N)C(=O)O.Cl.Cl [Example HH, Dihydrochloride] next?
Response given: 400 nM

Challenge: How about this molecule: CC(=N)NC/C=C\CC[C@@](C)(N)C(=O)O [Example MM, Dihydrochloride]
Response given: 121000 nM

Challenge: Check CC(=N)NC/C=C/CC(C)(N)C(=O)O (stereo not shown) [Example CC, Dihydrochloride] too.
Response given: 2900 nM

Challenge: Proceed to CC(=N)NC/C=C/C[C@@](C)(N)C(=O)O [Example DD, Dihydrochloride]
Response given: 10000 nM

Challenge: Try this molecule next: CC(=N)NC/C=C\CC[C@](C)(N)C(=O)O.Cl.Cl [Example LL, Dihydrochloride]
Response given: 700 nM

----------
target: UniProt:P29474
Sequence (P29474 2-1203): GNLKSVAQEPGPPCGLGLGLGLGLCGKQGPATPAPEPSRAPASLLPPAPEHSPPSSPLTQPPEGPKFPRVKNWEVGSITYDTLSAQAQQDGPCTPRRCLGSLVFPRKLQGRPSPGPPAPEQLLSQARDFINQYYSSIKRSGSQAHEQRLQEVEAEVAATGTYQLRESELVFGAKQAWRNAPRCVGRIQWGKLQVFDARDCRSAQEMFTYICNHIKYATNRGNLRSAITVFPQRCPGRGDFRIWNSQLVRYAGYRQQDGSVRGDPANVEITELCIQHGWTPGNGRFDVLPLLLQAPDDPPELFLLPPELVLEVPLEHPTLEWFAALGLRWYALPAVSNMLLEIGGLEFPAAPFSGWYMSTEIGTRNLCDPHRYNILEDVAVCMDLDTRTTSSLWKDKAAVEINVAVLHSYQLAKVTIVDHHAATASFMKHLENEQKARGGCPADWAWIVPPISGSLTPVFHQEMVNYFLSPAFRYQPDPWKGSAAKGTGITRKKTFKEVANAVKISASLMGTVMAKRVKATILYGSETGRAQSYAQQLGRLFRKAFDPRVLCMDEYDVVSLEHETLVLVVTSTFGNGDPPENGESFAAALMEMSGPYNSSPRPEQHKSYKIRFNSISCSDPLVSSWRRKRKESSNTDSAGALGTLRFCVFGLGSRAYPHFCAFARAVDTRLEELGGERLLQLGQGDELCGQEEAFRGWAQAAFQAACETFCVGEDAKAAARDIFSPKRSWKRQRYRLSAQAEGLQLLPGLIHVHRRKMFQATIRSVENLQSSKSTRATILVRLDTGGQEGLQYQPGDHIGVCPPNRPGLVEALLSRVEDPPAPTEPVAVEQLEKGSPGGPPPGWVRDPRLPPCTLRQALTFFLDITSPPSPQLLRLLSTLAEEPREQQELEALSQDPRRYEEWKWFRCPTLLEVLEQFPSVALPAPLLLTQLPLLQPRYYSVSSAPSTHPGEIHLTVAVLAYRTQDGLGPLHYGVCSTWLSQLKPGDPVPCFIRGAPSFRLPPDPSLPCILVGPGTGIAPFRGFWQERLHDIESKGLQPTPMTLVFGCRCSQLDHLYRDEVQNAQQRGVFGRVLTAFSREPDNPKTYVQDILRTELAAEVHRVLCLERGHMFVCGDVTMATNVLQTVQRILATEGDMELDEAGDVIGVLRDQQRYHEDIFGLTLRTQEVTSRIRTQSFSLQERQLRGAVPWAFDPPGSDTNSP
pIC50: −log10 of the molar value. Structures can show the parent of a compound that is named as a salt.
// label = True if pIC50 is not less than 4, otherwise False

Challenge: I'd appreciate it if you could say whether CC(=N)NC/C=C/CC(C)(N)C(=O)O (stereo not shown) [Example CC, Dihydrochloride] has pIC50 at least equal to 4.
Response given: True

Challenge: Next record, please: CC(=N)NC/C=C/C[C@](C)(N)C(=O)O [Example EE, Dihydrochloride]
Response given: True

Challenge: Entry to check: CC(=N)NC/C(F)=C\CCC(C)(N)C(=O)O (racemic) [Example KK, Dihydrochloride]
Response given: True

Challenge: Subsequent entry: CC(=N)NC/C=C/C[C@@](C)(N)C(=O)O [Example DD, Dihydrochloride]
Response given: True

Challenge: Also need CC(=N)NC/C=C\CC[C@](C)(N)C(=O)O.Cl.Cl [Example LL, Dihydrochloride] , thanks.
Response given: True

Challenge: Do the same for CC(=N)NC/C=C\CC[C@@](C)(N)C(=O)O [Example MM, Dihydrochloride] please
Response given: False

Challenge: // same read-out, input: CC(=N)NC/C(F)=C\CC[C@@](C)(N)C(=O)O [Example JJ, Dihydrochloride]
Response given: False

Challenge: Then this molecule: CC(=N)NC/C(F)=C\CC[C@](C)(N)C(=O)O.Cl.Cl [Example HH, Dihydrochloride]
Response given: True
